The origin of these recorded values is PubChem BioAssay AID328.

# System: BDF1 mice, P388 leukemia ip, median survival T/C
# experimental_protocol: NCI In Vivo Anticancer Drug Screen. Data for tumor model P388 Leukemia (intraperitoneal) in B6D2F1 (BDF1) mice
# assay_context: endpoint: median survival time; dose: 100.0 mg/kg/injection; schedule: Q04DX003 (ip); vehicle: saline with Tween-80; higher = longer survival
Inconclusive results and toxic doses are left out.
measured_quantity: T/C

Field request: T/C | item: O=S(=O)(F)c1ccc2nc(-c3cccc(Sc4ccccc4)c3)cc(Cl)c2c1 90 % of control

What do you get for COc1ccc(/C=C/C(=O)c2ccc(OCc3ccccc3)c(OC)c2)cc1OC ? 99 % of control

Same again, this time with CC(=O)Oc1cc(OCCCc2ccc(F)cc2)cc2c1-c1ccccc1CC2 99 % of control

Also, N#CC(CC(=O)OCc1ccccc1)NC(=O)OCc1ccccc1 (stereo not given) please. 95 % of control

Try this molecule too: O=C(NC(Cc1nn[nH]n1)C(=O)OCc1ccccc1)OCc1ccccc1 (stereo not given) 111 % of control

Now the same for CCOC(=O)c1cc(N)c(N2CCCC2)cc1Cl 100 % of control

One more molecule: CCCCCCSc1ncnc2nc[nH]c12 100 % of control

Please give the result for CCOC(=O)c1ccc(NC(N)=O)cc1 too. 99 % of control

Then this molecule: NC(=S)c1cncnc1N 91 % of control

Input NC(=S)c1ccc(N)nc1 103 % of control

What do we get for CC(C)(C1c2ccccc2C(=NO)c2ccccc21)[N+](=O)[O-] (stereo not given) ? 91 % of control

Moving on to the next molecule: C[C@]1(O)CC[C@H]2[C@@H]3CCC4=CC(=O)CC[C@]4(C)[C@@]3(Cl)[C@@H](O)C[C@@]21C 95 % of control

Follow-up entry: CC(=O)N1C(=O)NC(=O)C1(C)c1ccc(Cl)s1 (stereo not given) 100 % of control

What do you get for O=C(/C=N/O)Nc1cc(Cl)ccc1Cl ? 100 % of control

How about CC(C)=CCC/C(C)=C/CNc1ncnc2nc[nH]c12 ? 100 % of control
